- target entity: TtOGA (Thermobaculum terrenum, UniProt D1CDN2)
- Construct: full-length, N-terminal GST fusion from E. coli BL21, GST cut off with PreScission protease (pGEX-6P-1)
- Sequence (D1CDN2 entry or part of it): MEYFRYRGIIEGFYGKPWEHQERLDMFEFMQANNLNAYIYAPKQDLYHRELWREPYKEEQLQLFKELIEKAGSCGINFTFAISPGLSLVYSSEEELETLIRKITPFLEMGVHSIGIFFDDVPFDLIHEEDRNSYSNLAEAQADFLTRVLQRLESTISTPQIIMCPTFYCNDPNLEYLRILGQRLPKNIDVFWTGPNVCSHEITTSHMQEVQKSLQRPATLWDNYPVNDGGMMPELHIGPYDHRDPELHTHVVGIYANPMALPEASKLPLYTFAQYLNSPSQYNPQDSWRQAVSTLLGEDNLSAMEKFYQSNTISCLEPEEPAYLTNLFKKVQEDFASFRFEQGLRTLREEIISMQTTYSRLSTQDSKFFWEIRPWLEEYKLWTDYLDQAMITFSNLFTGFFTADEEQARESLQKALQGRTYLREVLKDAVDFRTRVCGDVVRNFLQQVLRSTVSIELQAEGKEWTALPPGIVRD
- assay explanation: fluorogenic 4MU-GlcNAc hydrolysis; Ki from IC50 by Cheng-Prusoff
- assay context: 4MU-GlcNAc 90 uM (= Km); 4 pM enzyme; 1 min preincubation
readout label: pKi
// pKi here means minus log10 of the molar concentration (mol/L)

Ask: Lab note: need pKi for C=CC=CC(=O)N[C@H]1c2nc(CCc3ccccc3)cn2[C@H](CO)[C@@H](O)[C@@H]1O [GlcNAcstatin G] on TtOGA (Thermobaculum terrenum, UniProt D1CDN2), anyone have it?
Reply: 7.74

Every entry's value here was drawn from paper PMC4683255.
